- Target Under Test: HDAC6 (Homo sapiens, UniProt Q9UBN7)
- Construct: Recombinant, full-length HDAC protein (BPS Biosciences) was incubated with fluorophore conjugated substrate
- Sequence (Q9UBN7 whole entry): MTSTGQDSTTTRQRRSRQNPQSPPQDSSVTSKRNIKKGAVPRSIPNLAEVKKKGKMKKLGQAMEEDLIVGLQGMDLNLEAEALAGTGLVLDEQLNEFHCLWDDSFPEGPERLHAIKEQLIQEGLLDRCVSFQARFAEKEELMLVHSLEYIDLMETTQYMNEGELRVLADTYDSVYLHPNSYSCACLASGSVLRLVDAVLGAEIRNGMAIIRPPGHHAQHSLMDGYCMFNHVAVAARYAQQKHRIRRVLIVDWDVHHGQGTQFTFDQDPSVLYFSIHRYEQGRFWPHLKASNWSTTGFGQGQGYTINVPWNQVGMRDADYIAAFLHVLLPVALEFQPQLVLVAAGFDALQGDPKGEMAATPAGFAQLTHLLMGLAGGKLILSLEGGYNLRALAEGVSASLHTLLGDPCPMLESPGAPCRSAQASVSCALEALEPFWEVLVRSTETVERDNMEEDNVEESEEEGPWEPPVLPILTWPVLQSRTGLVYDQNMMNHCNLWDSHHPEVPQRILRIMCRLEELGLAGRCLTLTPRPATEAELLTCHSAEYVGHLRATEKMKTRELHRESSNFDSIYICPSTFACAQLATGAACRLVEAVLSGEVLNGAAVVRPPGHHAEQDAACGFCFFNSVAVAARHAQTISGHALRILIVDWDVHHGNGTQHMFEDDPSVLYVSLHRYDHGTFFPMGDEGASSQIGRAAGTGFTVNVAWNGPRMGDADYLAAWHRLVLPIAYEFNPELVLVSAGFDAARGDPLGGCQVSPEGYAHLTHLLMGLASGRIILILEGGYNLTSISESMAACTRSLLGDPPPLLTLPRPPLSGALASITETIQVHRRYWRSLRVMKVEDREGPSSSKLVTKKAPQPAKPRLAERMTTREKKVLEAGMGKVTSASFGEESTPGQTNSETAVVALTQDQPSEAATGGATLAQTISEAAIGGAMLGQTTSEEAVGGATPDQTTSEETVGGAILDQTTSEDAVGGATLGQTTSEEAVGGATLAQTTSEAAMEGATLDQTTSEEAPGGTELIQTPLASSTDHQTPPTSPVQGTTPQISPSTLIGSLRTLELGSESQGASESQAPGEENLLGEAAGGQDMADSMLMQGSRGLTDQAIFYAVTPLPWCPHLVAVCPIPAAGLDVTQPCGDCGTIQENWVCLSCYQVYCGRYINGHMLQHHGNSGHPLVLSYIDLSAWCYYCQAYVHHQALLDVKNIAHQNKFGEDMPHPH
- Method Description: In vitro HDAC enzyme inhibition assay, HDAC6
- Stated Conditions: recombinant full-length HDAC6, substrate MAZ1600 9 μM
- Method: In vitro Histone Deacetylase enzyme assays were performed using Class I (isoforms: HDAC1, HDAC2, HDAC3 and HDAC8), class IIa (isoforms: HDAC4, HDAC5, HDAC7 and HDAC9) and class IIb (isoform HDAC6). HDAC activities were determined in vitro with an optimized homogenous assay performed in a 384-well plate. […] Fluorescence measurements were obtained every five minutes using a multilabel plate reader and plate-stacker (Envision; Perkin-Elmer). […]
Experimental Endpoint: pIC50
Scale explanation: pIC50 corresponds to minus log10 of a concentration expressed in moles per litre.

Value wanted: pIC50 (HDAC6 (Homo sapiens, UniProt Q9UBN7)) of entry O=C(NO)c1ccc(Cn2nnc3cc(Cl)ccc32)cc1
10.26

Value wanted: pIC50 (HDAC6 (Homo sapiens, UniProt Q9UBN7)) of entry O=C(NO)c1ccc(Cn2nnc3ccccc32)cc1
10.80

Value wanted: pIC50 (HDAC6 (Homo sapiens, UniProt Q9UBN7)) of entry O=C(NO)c1ccc(Cn2c(C(F)(F)F)nc3ccccc32)cc1
9.33

Value wanted: pIC50 (HDAC6 (Homo sapiens, UniProt Q9UBN7)) of entry O=C(NO)c1ccc(Cn2c(=O)[nH]c3cc(Br)ccc32)cc1
10.69

Value wanted: pIC50 (HDAC6 (Homo sapiens, UniProt Q9UBN7)) of entry O=C(NO)c1ccc(Cn2c(C(F)(F)F)nc3cc(F)ccc32)cc1
9.24

Value wanted: pIC50 (HDAC6 (Homo sapiens, UniProt Q9UBN7)) of entry O=C(NO)c1ccc(Cn2c(=O)[nH]c3cc(C(F)(F)F)ccc32)cc1
11.21

Value wanted: pIC50 (HDAC6 (Homo sapiens, UniProt Q9UBN7)) of entry Cc1ccc2c(c1)nc(C(F)(F)F)n2Cc1ccc(C(=O)NO)cc1
9.51

Value wanted: pIC50 (HDAC6 (Homo sapiens, UniProt Q9UBN7)) of entry O=C(NO)c1ccc(Cn2nnc3cc(Br)ccc32)cc1
10.59

Value wanted: pIC50 (HDAC6 (Homo sapiens, UniProt Q9UBN7)) of entry O=C(NO)c1ccc(Cn2cnc3ccccc32)cc1
10.01

Value wanted: pIC50 (HDAC6 (Homo sapiens, UniProt Q9UBN7)) of entry O=C(NO)c1ccc(Cn2c(C(F)(F)F)nc3cc(Br)ccc32)cc1
9.51

Value wanted: pIC50 (HDAC6 (Homo sapiens, UniProt Q9UBN7)) of entry O=C(NO)c1ccc(Cn2c(C(F)(F)F)nc3cc(Cl)ccc32)cc1
8.94

Value wanted: pIC50 (HDAC6 (Homo sapiens, UniProt Q9UBN7)) of entry Cc1ccc2c(c1)ncn2Cc1ccc(C(=O)NO)cc1
9.42

Value wanted: pIC50 (HDAC6 (Homo sapiens, UniProt Q9UBN7)) of entry O=C(NO)c1ccc(Cn2c(=O)[nH]c3ccccc32)cc1
10.84

Value wanted: pIC50 (HDAC6 (Homo sapiens, UniProt Q9UBN7)) of entry O=C(NO)c1ccc(Cn2cnc3cc(Br)ccc32)cc1
10.78

Value wanted: pIC50 (HDAC6 (Homo sapiens, UniProt Q9UBN7)) of entry Cc1ccc2c(c1)nnn2Cc1ccc(C(=O)NO)cc1
5.83

Value wanted: pIC50 (HDAC6 (Homo sapiens, UniProt Q9UBN7)) of entry O=C(NO)c1ccc(Cn2cnc3cc(F)ccc32)cc1
10.18

Value wanted: pIC50 (HDAC6 (Homo sapiens, UniProt Q9UBN7)) of entry COc1ccc2c(c1)nc(C(F)(F)F)n2Cc1ccc(C(=O)NO)cc1
9.41

Value wanted: pIC50 (HDAC6 (Homo sapiens, UniProt Q9UBN7)) of entry O=C(NO)c1ccc(Cn2cnc3cc(Cl)ccc32)cc1
10.16

Value wanted: pIC50 (HDAC6 (Homo sapiens, UniProt Q9UBN7)) of entry O=C(NO)c1ccc(Cn2c(=O)[nH]c3cc(Cl)ccc32)cc1
10.60

Value wanted: pIC50 (HDAC6 (Homo sapiens, UniProt Q9UBN7)) of entry O=C(NO)c1ccc(Cn2nnc3cc(F)ccc32)cc1
10.58
